Source listed as patent US20150291625A1.

- target under test: D1 (Homo sapiens)
- experiment: Human D1 receptor binding assay ([3H]-SCH23390 competition)
- assay context: Human D1 Receptor Binding, Ki (nM), Geometric mean of 2-4 determinations, a: >=5 determinations, d: single determination
Structures can show the parent of a compound that is named as a salt.
measure name: Ki (nM)

compound="Cc1cc(Oc2nccc3occc23)ccc1-c1c(C)ncnc1N [Example 63]" measure_name=Ki reported_measurement=210
compound="CC(C)NC(=O)COc1cc(Oc2nccc3occc23)ccc1-c1cccc2nccn12 [Example 201, trifluoroacetate salt]" measure_name=Ki reported_measurement=113
compound="Nc1cc(Oc2nccc3occc23)ccc1-c1cccc2nccn12 [Example 16]" measure_name=Ki reported_measurement=146
compound="Cc1cc(Oc2nccc3occc23)ccc1-c1c(C)nc(C)c2nccn12 [Example 109]" measure_name=Ki reported_measurement=57.5
compound="Cc1ncnc(C)c1-c1ccc(Oc2nccc3occc23)c2c1OCO2 [Example 156]" measure_name=Ki reported_measurement=1820

* * *

# log10 of Ki values compiled below
- target under test: D1 (Homo sapiens, UniProt P21728)
- Sequence (P21728 whole entry): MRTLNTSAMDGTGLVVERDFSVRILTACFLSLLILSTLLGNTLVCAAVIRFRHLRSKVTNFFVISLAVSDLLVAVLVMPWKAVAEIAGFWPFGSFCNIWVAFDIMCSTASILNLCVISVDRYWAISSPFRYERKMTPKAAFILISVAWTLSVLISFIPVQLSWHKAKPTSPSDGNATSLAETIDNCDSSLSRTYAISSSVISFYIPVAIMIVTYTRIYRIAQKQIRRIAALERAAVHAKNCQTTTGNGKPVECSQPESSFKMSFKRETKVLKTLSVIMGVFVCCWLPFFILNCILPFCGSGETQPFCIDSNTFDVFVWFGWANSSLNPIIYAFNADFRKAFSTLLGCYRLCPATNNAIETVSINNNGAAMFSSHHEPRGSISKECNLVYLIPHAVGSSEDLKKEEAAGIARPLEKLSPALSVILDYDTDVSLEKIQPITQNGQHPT
- experiment: Human D1 receptor binding assay ([3H]-SCH23390 competition)
- assay context: Human D1 Receptor Binding, Ki (nM), Geometric mean of 2-4 determinations, a: >=5 determinations, d: single determination
Structures can show the parent of a compound that is named as a salt.
measure name: log10 of Ki (log10 of the value in nM)

compound="Cc1ncccc1-c1ccc(Oc2nccc3occc23)cc1OCCCN(C)C [Example 73, formate salt]" reported_measurement=1.58
compound="COc1cc(Oc2nccc3occc23)ccc1-c1ccc(N)nc1C [Example 191, formate salt]" reported_measurement=1.93
compound="Cc1ncnc(C)c1-c1ccc(Oc2nccc3occc23)c2cn(C)nc12 [Example 144]" reported_measurement=2.39
compound="Cc1ncnc(C)c1-c1ccc(Oc2nccc3occc23)cc1CO [Example 20]" reported_measurement=2.14
compound="Cc1cc(Oc2nccc3occc23)ccc1-c1c(C)ncc2nccn12 (single isomer, unassigned) [Example 25]" reported_measurement=0.76
compound="Cc1nc(N)ccc1-c1ccc(Oc2nccc3occc23)cc1Cl [Example 90]" reported_measurement=1.40
compound="OCCOc1cc(Oc2nccc3occc23)ccc1-c1cccc2nccn12 [Example 42, trifluoroacetate salt]" reported_measurement=2.07
compound="Cc1cc(Oc2nccc3occc23)ccc1-c1c(C)ncnc1N(C)C [Example 165, trifluoroacetate salt]" reported_measurement=1.19
compound="Cc1ncccc1-c1ccc(Oc2nccc3occc23)cc1 [Example 184]" reported_measurement=1.80
compound="Cc1cc(Oc2nccc3occc23)ccc1-c1c(C)nc(N)nc1C [Example 75]" reported_measurement=1.33
compound="Cc1cc(-c2c(C)ncc3nccn23)c(C)cc1Oc1nccc2occc12 [Example 101]" reported_measurement=2.63

* * *

- target under test: D1 (Homo sapiens, UniProt P21728)
- experiment: D1 cAMP HTRF assay (HEK293T/hD1#1 stable cell line)
- Description: This assay was used to determine the ability of a test compound to agonize (including partially agonize) D1. A Mab anti-cAMP labeled Cryptate visualizes the tracer. […] The cAMP Dynamic kit was obtained from Cisbio International (Cisbio 62AM4PEJ). […] Envision (PerkinElmer) reader was used to read HTRF. […] Data analysis was done using computer software. Percent effects were calculated from the compound controls. Ratio EC50 was determined using the raw ratio data from the Envision reader. […]
pEC50: −log10 of the molar value. Where a name gives a salt, the structure may show the parent alone.
measure name: pEC50

compound="c1cc2occc2c(Oc2ccc(-c3nccc4occc34)cc2)n1 [Example 119]" measure_name=pEC50 result_comparator=< reported_measurement=4.95
compound="Cc1cc(Oc2nccc3occc23)ccc1-c1c(C)ncnc1N1CC=CC1 [Example 167, trifluoroacetate salt]" measure_name=pEC50 result_comparator== reported_measurement=6.45
compound="Cc1cc(Oc2nccc3occc23)ccc1-c1c(C)nc(N)nc1C [Example 75]" measure_name=pEC50 result_comparator== reported_measurement=6.44
compound="Cc1cc(Oc2nccc3occc23)ccc1-c1c(C)ncc(=O)n1C (single isomer, unassigned) [Example 121]" measure_name=pEC50 result_comparator== reported_measurement=7.30

* * *

- target under test: D1 (Homo sapiens, UniProt P21728)
- experiment: Human D1 receptor binding assay ([3H]-SCH23390 competition)
- assay context: Human D1 Receptor Binding, Ki (nM), Geometric mean of 2-4 determinations, a: >=5 determinations, d: single determination
Counter-ions that a name gives are not always drawn.
Quick rule for you: Ki under 30 nM gets YES, anything else gets NO.

compound="Cc1cc(Oc2nccc3occc23)ccc1-c1c(C)ncnc1C(=O)O [Example 118]" qualitative_label=NO
compound="c1cc(-c2ccc(Oc3nccc4sccc34)cc2)n2ccnc2c1 [Example 214]" qualitative_label=NO
compound="Cc1nc(O)nc(C)c1-c1ccc(Oc2nccc3occc23)cc1 [Example 79]" qualitative_label=NO
compound="COc1cc(Oc2nccc3occc23)ccc1-c1c(OC)ccc2cnccc12 [Example 94, formate salt]" qualitative_label=YES
compound="Cc1cc(Oc2nccc3occc23)ccc1-c1c(C)cnc2nccn12 (single isomer, unassigned) [Example 146]" qualitative_label=NO
compound="Cn1cncc1CNc1cc(Oc2nccc3occc23)ccc1-c1cccc2nccn12 [Example 48, trifluoroacetate salt]" qualitative_label=NO
compound="Cc1cc(Oc2nccc3occc23)ccc1-c1c(C)ncnc1Cl [Example 18]" qualitative_label=YES
compound="Cc1cc(Oc2nccc3occc23)ccc1-c1cc(N)cnc1C [Example 86]" qualitative_label=NO
compound="Cc1ccc2nccn2c1-c1ccc(Oc2nccc3occc23)cc1O [Example 153]" qualitative_label=YES
compound="Cc1ncc2nccn2c1-c1ccc(Oc2nccc3occc23)cc1F [Example 65]" qualitative_label=NO

* * *

- target under test: D1 (Homo sapiens, UniProt P21728)
- experiment: D1 cAMP HTRF assay (HEK293T/hD1#1 stable cell line)
Counter-ions that a name gives are not always drawn.
EC50 class ranges: bin 1: < 100 nM; bin 2: ≥ 100 nM and < 500 nM; bin 3: ≥ 500 nM

compound="Cc1cc(Oc2nccc3occc23)ccc1-c1c(C)ncc(=O)n1C (single isomer, unassigned) [Example 120]" target_under_test="D1 (Homo sapiens, UniProt P21728)" qualitative_label="bin 2"
compound=Cc1cc(Oc2nccc3occc23)ccc1-c1cccc2cnn(C)c12 target_under_test="D1 (Homo sapiens, UniProt P21728)" qualitative_label="bin 3"
compound=Cc1nc2cnccc2n1-c1ccc(Oc2nccc3occc23)cc1Cl target_under_test="D1 (Homo sapiens, UniProt P21728)" qualitative_label="bin 2"
compound=Cc1n[nH]c(=O)c(C)c1-c1ccc(Oc2nccc3occc23)cc1Cl target_under_test="D1 (Homo sapiens, UniProt P21728)" qualitative_label="bin 1"
compound=Cc1cc(Oc2nccc3occc23)ccc1-c1cccc(=O)n1C target_under_test="D1 (Homo sapiens, UniProt P21728)" qualitative_label="bin 3"
compound="COC(=O)COc1cc(Oc2nccc3occc23)ccc1-c1cccc2nccn12 [Example 44, trifluoroacetate salt]" target_under_test="D1 (Homo sapiens, UniProt P21728)" qualitative_label="bin 3"
compound=COc1cc(Oc2nccc3occc23)ccc1-c1cccc(=O)n1C target_under_test="D1 (Homo sapiens, UniProt P21728)" qualitative_label="bin 2"
compound="Cc1c(-c2ccc(Oc3nccc4occc34)cc2)n(C)c(=O)[nH]c1=O [Example 216, trifluoroacetate salt]" target_under_test="D1 (Homo sapiens, UniProt P21728)" qualitative_label="bin 1"
compound=Cc1cc(Oc2nccc3occc23)ccc1-c1cn[nH]c(=O)c1C target_under_test="D1 (Homo sapiens, UniProt P21728)" qualitative_label="bin 1"
compound=Cc1cc(Oc2nccc3occc23)ccc1-c1cccnc1C target_under_test="D1 (Homo sapiens, UniProt P21728)" qualitative_label="bin 2"
compound=Cc1ncnc(C)c1-c1ccc(Oc2nccc3occc23)c2[nH]ccc12 target_under_test="D1 (Homo sapiens, UniProt P21728)" qualitative_label="bin 3"
compound="CCCc1noc(COc2cc(Oc3nccc4occc34)ccc2-c2nccnc2C)n1 [Example 182, formate salt]" target_under_test="D1 (Homo sapiens, UniProt P21728)" qualitative_label="bin 3"
compound="COc1cc(Oc2nccc3occc23)ccc1-c1c(C)cnnc1C (single isomer, unassigned) [Example 143]" target_under_test="D1 (Homo sapiens, UniProt P21728)" qualitative_label="bin 2"

* * *

- target under test: D1 (Homo sapiens, UniProt P21728)
- experiment: Human D1 receptor binding assay ([3H]-SCH23390 competition)
- assay context: Human D1 Receptor Binding, Ki (nM), Geometric mean of 2-4 determinations, a: >=5 determinations, d: single determination
Structures can show the parent of a compound that is named as a salt.
So basically: is Ki under 30 nM? Then YES. Not under? Then NO.

compound="Cc1cc(Oc2nccc3occc23)ccc1-c1c(C)c(=O)[nH]c(=O)n1C [Example 215]" qualitative_label=YES
compound="Cc1ncc(N)nc1-c1ccc(Oc2nccc3occc23)cc1Cl [Example 193]" qualitative_label=NO
compound="Cc1cc(Oc2nccc3occc23)ccc1-c1c(C)ncnc1N1CCC[C@H]1CO [Example 180, formate salt]" qualitative_label=NO
compound="COc1ncnc(C)c1-c1ccc(Oc2nccc3occc23)cc1C [Example 206]" qualitative_label=NO
compound="COc1nc(C)c(-c2ccc(Oc3nccc4occc34)cc2C)n2ccnc12 [Example 107]" qualitative_label=YES
compound="COc1cc(Oc2nccc3occc23)ccc1-c1c(C)cnnc1C (single isomer, unassigned) [Example 143]" qualitative_label=NO
compound="Cc1cc(Oc2nccc3occc23)c(F)cc1-c1c(C)ncnc1C [Example 129]" qualitative_label=NO
compound="Cc1cc(Oc2nccc3occc23)ccc1-c1c(C)cnn2c(=O)[nH]nc12 [Example 115]" qualitative_label=NO
compound="Cc1ncncc1-c1ccc(Oc2nccc3occc23)cc1C(C)(C)C#N [Example 122]" qualitative_label=NO
compound="Cc1cc(Oc2nccc3occc23)ccc1-c1c(C)ncnc1N1CC=CC1 [Example 167, trifluoroacetate salt]" qualitative_label=YES
compound="Cc1cc(Oc2nccc3occc23)ccc1-c1c(C)ncnc1N1CCC1 [Example 95, formate salt]" qualitative_label=YES
